For each entry below, report its relative viability value.
# Tested on: NCI-H441
# ASSAY_PROCEDURE: relative viability (nuclei count vs DMSO), 5 days (fraction); higher = more cells survive
# CONDITIONS_USED: first compound 0.3162 µM
Would you mind answering with just the numeric figure?

So, CCN(CC)CCCCNc1ncc2cc(-c3cc(OC)cc(OC)c3)c(NC(=O)NC(C)(C)C)nc2n1 + CS(=O)(=O)N1CCN(Cc2cc3nc(-c4cccc5[nH]ncc45)nc(N4CCOCC4)c3s2)CC1 [Pictilisib] (partner 1 µM) ? Its relative viability was 0.53

// recorded relative viability for CCN(CC)CCCCNc1ncc2cc(-c3cc(OC)cc(OC)c3)c(NC(=O)NC(C)(C)C)nc2n1 + COc1cccc2cc(-c3nc([C@H]4CC[C@H](C(=O)O)CC4)n4ncnc(N)c34)[nH]c12 [OSI-027] (partner 0.5 µM) : 0.689

Form: compound = CCN(CC)CCCCNc1ncc2cc(-c3cc(OC)cc(OC)c3)c(NC(=O)NC(C)(C)C)nc2n1 + O=C(CCCCCCC(=O)Nc1ccccc1)NO [Vorinostat] (partner 1 µM) ; relative viability = 0.776

Recorded relative viability (compound CCN(CC)CCCCNc1ncc2cc(-c3cc(OC)cc(OC)c3)c(NC(=O)NC(C)(C)C)nc2n1 + COc1cc2c(Oc3ccc(NC(=O)C4(C(=O)Nc5ccc(F)cc5)CC4)cc3F)ccnc2cc1OCCCN1CCOCC1 [Foretinib] (partner 0.25 µM) ): 1.04

# relative viability (compound: O=c1cc(N2CCOCC2)oc2c(-c3cccc4c3sc3ccccc34)cccc12 + CS(=O)(=O)N1CCN(Cc2cc3nc(-c4cccc5[nH]ncc45)nc(N4CCOCC4)c3s2)CC1 [Pictilisib] (partner 1 µM) ) is 0.438

What the record says about CCN(CC)CCCCNc1ncc2cc(-c3cc(OC)cc(OC)c3)c(NC(=O)NC(C)(C)C)nc2n1 + NC(=O)Nc1cc(-c2cccc(F)c2)sc1C(=O)N[C@H]1CCCNC1 [AZD7762] (partner 0.2 µM) : relative viability is 1.39

----------
Please respond with reported relative viability for every item in the list.
# Test system: NCI-H2405
# ASSAY_PROCEDURE: relative viability (nuclei count vs DMSO), 5 days (fraction); higher = more cells survive
# CONDITIONS_USED: first compound 2.53 µM
Reply: number alone, nothing else.

For O=c1cc(-c2cccc3c2Sc2ccccc2S3)oc(N2CCOCC2)c1 + CC(=O)Nc1cccc(-n2c(=O)n(C3CC3)c(=O)c3c(Nc4ccc(I)cc4F)n(C)c(=O)c(C)c32)c1 [Trametinib] (partner 0.02 µM) the compound record lists relative viability as 0.534

Sample COc1nc(C)cnc1NS(=O)(=O)c1cccnc1-c1ccc(-c2nnco2)cc1 [Zibotentan] + CC(=O)c1c(C)c2cnc(Nc3ccc(N4CCNCC4)cn3)nc2n(C2CCCC2)c1=O [Palbociclib] (partner 0.5 µM) ; relative viability observed: 0.55

----------
Exercise: state measured relative viability for each of the molecules provided.
# Test system: LOU-NH91
# ASSAY_PROCEDURE: relative viability (nuclei count vs DMSO), 5 days (fraction); higher = more cells survive
# CONDITIONS_USED: first compound 0.03162 µM
Give your answer as a number; write no unit.

Briefly, relative viability measured for O=c1cc(N2CCOCC2)oc2c(-c3cccc4c3sc3ccccc34)cccc12 + CS(=O)(=O)N1CCN(Cc2cc3nc(-c4cccc5[nH]ncc45)nc(N4CCOCC4)c3s2)CC1 [Pictilisib] (partner 1 µM) : 0.533

Reported relative viability ( CCN(CC)CCCCNc1ncc2cc(-c3cc(OC)cc(OC)c3)c(NC(=O)NC(C)(C)C)nc2n1 + COc1cc2c(Oc3ccc(NC(=O)C4(C(=O)Nc5ccc(F)cc5)CC4)cc3F)ccnc2cc1OCCCN1CCOCC1 [Foretinib] (partner 0.25 µM) ) = 0.916

So for CCN(CC)CCCCNc1ncc2cc(-c3cc(OC)cc(OC)c3)c(NC(=O)NC(C)(C)C)nc2n1 + C[C@@H](Oc1cc(-c2cnn(C3CCNCC3)c2)cnc1N)c1c(Cl)ccc(F)c1Cl [Crizotinib] (partner 1 µM) , the logged relative viability turned out to be 0.723

The reported relative viability of the molecule O=c1cc(N2CCOCC2)oc2c(-c3cccc4c3sc3ccccc34)cccc12 + C[C@@H](Oc1cc(-c2cnn(C3CCNCC3)c2)cnc1N)c1c(Cl)ccc(F)c1Cl [Crizotinib] (partner 1 µM) was 0.695

# relative viability of O=c1cc(N2CCOCC2)oc2c(-c3cccc4c3sc3ccccc34)cccc12 + Cc1nc(Nc2ncc(C(=O)Nc3c(C)cccc3Cl)s2)cc(N2CCN(CCO)CC2)n1 [Dasatinib] (partner 0.075 µM) = 0.55

For record O=c1cc(N2CCOCC2)oc2c(-c3cccc4c3sc3ccccc34)cccc12 + CC(C)C[C@H](NC(=O)[C@H](Cc1ccccc1)NC(=O)c1cnccn1)B(O)O [Bortezomib] (partner 0.002 µM) the listed relative viability is 0.487

// sample O=c1cc(N2CCOCC2)oc2c(-c3cccc4c3sc3ccccc34)cccc12 + CCNC(=O)c1noc(-c2cc(C(C)C)c(O)cc2O)c1-c1ccc(CN2CCOCC2)cc1 [Luminespib] (partner 0.01 µM) , its relative viability was 0.318

----------
# System: NCI-H661
# ASSAY_PROCEDURE: relative viability (nuclei count vs DMSO), 5 days (fraction); higher = more cells survive
# CONDITIONS_USED: first compound 0.3162 µM
I'd appreciate it if you could supply relative viability values for the items below.

Item: CCN(CC)CCCCNc1ncc2cc(-c3cc(OC)cc(OC)c3)c(NC(=O)NC(C)(C)C)nc2n1 + Nc1ncn([C@H]2C[C@H](O)[C@@H](CO)O2)c(=O)n1 [Decitabine] (partner 2 µM) | relative viability: 0.573

Looking up CCN(CC)CCCCNc1ncc2cc(-c3cc(OC)cc(OC)c3)c(NC(=O)NC(C)(C)C)nc2n1 + Cc1cc(Nc2cc(N3CCN(C)CC3)nc(Sc3ccc(NC(=O)C4CC4)cc3)n2)n[nH]1 [Tozasertib] (partner 0.1 µM) , I found its relative viability recorded as 0.36

The measured relative viability associated with CCN(CC)CCCCNc1ncc2cc(-c3cc(OC)cc(OC)c3)c(NC(=O)NC(C)(C)C)nc2n1 + CCNC(=O)c1noc(-c2cc(C(C)C)c(O)cc2O)c1-c1ccc(CN2CCOCC2)cc1 [Luminespib] (partner 0.01 µM) reads 0.982

Form: compound = CCN(CC)CCCCNc1ncc2cc(-c3cc(OC)cc(OC)c3)c(NC(=O)NC(C)(C)C)nc2n1 + CC(=O)c1c(C)c2cnc(Nc3ccc(N4CCNCC4)cn3)nc2n(C2CCCC2)c1=O [Palbociclib] (partner 0.5 µM) ; relative viability = 0.444

Item: O=c1cc(N2CCOCC2)oc2c(-c3cccc4c3sc3ccccc34)cccc12 + CC(=O)c1c(C)c2cnc(Nc3ccc(N4CCNCC4)cn3)nc2n(C2CCCC2)c1=O [Palbociclib] (partner 0.5 µM) | relative viability: 0.416

Sample O=c1cc(N2CCOCC2)oc2c(-c3cccc4c3sc3ccccc34)cccc12 + CS(=O)(=O)CCNCc1ccc(-c2ccc3ncnc(Nc4ccc(OCc5cccc(F)c5)c(Cl)c4)c3c2)o1 [Lapatinib] (partner 2 µM) ; relative viability observed: 0.473

response.value for CCN(CC)CCCCNc1ncc2cc(-c3cc(OC)cc(OC)c3)c(NC(=O)NC(C)(C)C)nc2n1 + Cc1nc(NC(=O)N2CCC[C@H]2C(N)=O)sc1-c1ccnc(C(C)(C)C(F)(F)F)c1 [Alpelisib] (partner 2 µM) (field: relative viability) = 0.858

// recorded relative viability for O=c1cc(N2CCOCC2)oc2c(-c3cccc4c3sc3ccccc34)cccc12 + C[C@@H](Oc1cc(-c2cnn(C3CCNCC3)c2)cnc1N)c1c(Cl)ccc(F)c1Cl [Crizotinib] (partner 1 µM) : 0.817

Reported relative viability for CCN(CC)CCCCNc1ncc2cc(-c3cc(OC)cc(OC)c3)c(NC(=O)NC(C)(C)C)nc2n1 + Cc1nc(Nc2ncc(C(=O)Nc3c(C)cccc3Cl)s2)cc(N2CCN(CCO)CC2)n1 [Dasatinib] (partner 0.075 µM) was 1.03

The value of relative viability measured for the compound CCN(CC)CCCCNc1ncc2cc(-c3cc(OC)cc(OC)c3)c(NC(=O)NC(C)(C)C)nc2n1 + COc1cc2c(Oc3ccc(NC(=O)C4(C(=O)Nc5ccc(F)cc5)CC4)cc3F)ccnc2cc1OCCCN1CCOCC1 [Foretinib] (partner 0.25 µM) turned out to be 1.07

// relative viability value for CCN(CC)CCCCNc1ncc2cc(-c3cc(OC)cc(OC)c3)c(NC(=O)NC(C)(C)C)nc2n1 + Nc1nc2[nH]cc(CCc3ccc(C(=O)N[C@@H](CCC(=O)O)C(=O)O)cc3)c2c(=O)[nH]1 [Pemetrexed] (partner 0.2 µM) : 0.986

These data points were gathered from the supplement of paper PMC10307832.
